tested_on: Prostaglandin G/H synthase 2 (Mus musculus, UniProt Q05769)
Sequence (Q05769 whole entry): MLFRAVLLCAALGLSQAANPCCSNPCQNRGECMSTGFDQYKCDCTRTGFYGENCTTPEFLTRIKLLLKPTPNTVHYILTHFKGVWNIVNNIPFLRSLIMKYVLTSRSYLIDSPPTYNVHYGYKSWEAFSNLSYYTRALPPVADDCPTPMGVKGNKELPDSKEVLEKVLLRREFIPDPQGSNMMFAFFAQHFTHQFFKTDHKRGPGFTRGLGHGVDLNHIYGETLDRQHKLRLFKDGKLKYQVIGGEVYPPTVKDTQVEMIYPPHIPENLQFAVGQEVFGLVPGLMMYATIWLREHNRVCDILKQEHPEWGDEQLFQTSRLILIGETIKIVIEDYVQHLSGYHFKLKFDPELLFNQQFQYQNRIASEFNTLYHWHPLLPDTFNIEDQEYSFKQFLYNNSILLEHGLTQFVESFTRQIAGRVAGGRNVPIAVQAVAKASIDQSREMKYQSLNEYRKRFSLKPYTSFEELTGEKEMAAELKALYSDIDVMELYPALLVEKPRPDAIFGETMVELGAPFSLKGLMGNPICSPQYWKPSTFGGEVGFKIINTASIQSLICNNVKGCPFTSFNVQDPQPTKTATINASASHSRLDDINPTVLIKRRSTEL
pIC50: −log10 of the molar value.
observable: pIC50

Input: // returns reported pIC50 for input COc1ccc(-n2nc(CCC(=O)NCCCCNC(=O)c3ccc(C4=c5cc6c7c(c5Oc5c4cc4c8c5CCCN8CCC4)CCC[N+]=7CCC6)c(C(=O)[O-])c3)cc2-c2ccc(C)cc2)cc1
Output: < 6.00
